Tested on: 201T
Assay: relative viability (nuclei count vs DMSO), 5 days (fraction); higher = more cells survive
Details: first compound 8 µM
Quick reference for relative viability among some compounds
Answer field: number only, no words.

Solved entries (count: 2):
* Nc1cccc2c1CN(C1CCC(=O)NC1=O)C2=O (stereo not drawn) [Lenalidomide] + CC(=O)c1c(C)c2cnc(Nc3ccc(N4CCNCC4)cn3)nc2n(C2CCCC2)c1=O [Palbociclib] (partner 0.5 µM) | 0.351
* Nc1cccc2c1CN(C1CCC(=O)NC1=O)C2=O (stereo not drawn) [Lenalidomide] + Nc1ncn([C@H]2C[C@H](O)[C@@H](CO)O2)c(=O)n1 [Decitabine] (partner 2 µM) | 0.816

Attention now shifts to the item below.
Prompt line: Reported relative viability for Nc1cccc2c1CN(C1CCC(=O)NC1=O)C2=O (stereo not drawn) [Lenalidomide] + O=C(CCCCCCC(=O)Nc1ccccc1)NO [Vorinostat] (partner 1 µM) : what is it?
Response line: 0.859
